This collection of values is drawn from patent US20210163545A1.

Molecular target: Fab
Test: static binding capacity: Fab incubated with ligand-immobilized porous particles, eluted at pH 2.5, absorbance
value-type: SBC without alkali treatment (mg/mL-particles)
Respond with the number and no other words.

Solved entries (count: 2):
1. Recombinant immunoglobulin κ chain binding protein KBP9 (protein, part only; not given: further domain copies and linkers, part only) chain, part: KETETEEPKEEVTIKVNLIFADGKTQTATFKGTFEEATAEAYRYADLLAKVNGEYTADLEDGGYTINIKFAGK
60
2. Recombinant immunoglobulin κ chain binding protein KBP8 (protein, part only; not given: further domain copies and linkers, part only) chain, part: KETETPEEPKEEVTIKVNLIFADGKTQTATFKGTFEEATAEAYRYADLLAKVNGEYTADLEDGGYTINIKFAGK
60

Let's switch to this binder now.
Notebook: Recombinant immunoglobulin κ chain binding protein KBP6 (protein, part only; not given: further domain copies and linkers, part only) chain, part: KETPETPEEPKEEVTIKVNLIFADGKTQTATFKGTFEEATAEAYRYADLLAKVNAGEYTADLEDGGYTINIKFAGK , SBC without alkali treatment (mg/mL-particles) read as 61
